The measurements presented in this section are drawn from patent US20250042994A1.

Target: T1, human CD19 on CHO-K1-human CD19 cells (human, UniProt P15391 20-556)
T1 construct: whole, on cells; also called CHO-K1-human CD19-2C8
T1 sequence (looked up): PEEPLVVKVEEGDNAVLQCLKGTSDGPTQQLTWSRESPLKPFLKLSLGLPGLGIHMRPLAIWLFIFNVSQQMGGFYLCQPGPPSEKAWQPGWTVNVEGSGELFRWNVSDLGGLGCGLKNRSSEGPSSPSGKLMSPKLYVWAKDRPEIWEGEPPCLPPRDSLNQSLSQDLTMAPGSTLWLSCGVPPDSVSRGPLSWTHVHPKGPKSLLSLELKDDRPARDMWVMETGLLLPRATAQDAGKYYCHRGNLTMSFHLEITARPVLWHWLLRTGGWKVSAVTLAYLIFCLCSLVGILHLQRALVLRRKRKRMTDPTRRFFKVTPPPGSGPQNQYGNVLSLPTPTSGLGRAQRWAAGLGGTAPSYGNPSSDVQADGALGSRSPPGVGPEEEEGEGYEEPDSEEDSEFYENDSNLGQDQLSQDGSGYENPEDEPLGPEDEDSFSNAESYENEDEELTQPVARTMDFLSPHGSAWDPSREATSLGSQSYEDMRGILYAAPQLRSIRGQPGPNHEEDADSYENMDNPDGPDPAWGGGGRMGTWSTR
Assay: FACS on CHO-K1-human CD19 cells
Recorded metric: EC50 (nM)
The figure you give is taken to be in nM; do not add the unit.

What value of measured EC50 is listed for F3.83.9 (antibody, human IgG1, V domains shown, human-murine chimeric antibody, human IgG1) VH: DVQLQESGPGLVKPSQSLSLTCSVTGYSITSGYYWNWIRQFPGNKLEWMGYISYDGGNNYNPSLKNRISITRDTSKNQFFLKLNSVTTEDTATYFCAREDYSNWYFDVWGTGTTVTVSS VL: DIVLTQSPASLAVSLGQRATISCRASQSVSKSSYSYMHWYQQKPGQSPKLLIKYASILKSGVPARFSGSGSGTDFTLNIHPVEEEDTATYYCQHSWEIPWTFGGGTKLEIK ? 1.34

F6.12.12 (antibody, human IgG1, V domains shown, human-murine chimeric antibody, human IgG1) VH: DVQLQESGPGLVKPSQSLSLTCSVTGYSITSGYYWIWIRQFPGNKLEWMGYISYDASNKYKPSLKNRISITRDTSKNQFFLKLNSVTAEDTATYFCAREDLRGYFDVWGTGTSVTVSS VL: DIVLTQSPASLAVSLGRRATISCRASQSVSTSGFSYMHWYQQKPGQPPNLLIKYASILQSGVPARFSGSGSGTDFILNIHPVEDVDTATYYCQHSWGIPFTFGSGTKLEIK ? 0.84

Same question for F3.133.14 (antibody, human IgG1, V domains shown, human-murine chimeric antibody, human IgG1) VH: QVQLQQPGAELVMPGASVKLSCKASGYTFTNYWMHWVKQRPGQGLEWIGEIDPSDYYANYNQKFKGKATLTVDKSSSTAYMQLSSLTSEDSAVYYCARSHYYANSYNYWGQGTTLTVSS VL: EIELTQSPTTMAASPGEKITITCSASSSISSDYLHWYQQKPGFSPKLLIYRTSNLASGLPARFSGSGSGTSYSLTIGTMEAEDVATYYCQQGSSVPRMLTFGAGTKLELK please. 0.82

Thanks! And F4.272.13 (antibody, human IgG1, V domains shown, human-murine chimeric antibody, human IgG1) VH: QVQLKESGPGLVAPSQSLSITCTVSGFSLTDYGVSWIRQPPGKGLEWLGVIWGSETTFYNSALKSRLSISKDNSKSQLFLQMNSLQADDTAIYYCAKHHYYGGSFSMDYWGQGTSVTVSS VL: DIQMTQTTSSLSASLGDRVTISCRASQDINNYLNWYQQKPDGTVKFLIYYTSRLHSGVPSRFSGSGSGTDYSLTISDLEQEDIATYFCQQGNTLPYTFGGGTKLEIK ? 0.77

Then F1-mab003 (antibody, human IgG1, V domains shown, human-murine chimeric antibody, human IgG1) VH: EVQLQQSGPELVKPGASVKMSCKASGYTFTDYVMHWVRQTPGQGLEWIGYFNPYNDGTNYNEKFKVKATLTSDKSSTTAYMELSSLTSEDSAVYYCARGVYYYGRDFDYWGQGTTLTVSS VL: DVVLTQTPLSLPVSLGDQASISCRSSQSLENSNGNSYLNWYLQKPGQSPQLLIYRVSNRFSGVLDRFSGSGSGTDFTLKISRVEAEDLGVYFCLQITHVPWTFGGGTKLEIK ? 0.69

Now consider F3.64.4 (antibody, human IgG1, V domains shown, human-murine chimeric antibody, human IgG1) VH: EVQLQQSGPELVKPGASVKISCKASGYTFTDYHINWVKQSHGKSPEWIGDINPNNGGTTYNQKFKDKATLTVDKSSSTAFMELRSLTSEDSAVYYCARFITTVVAWYFDVWGTGTTVTVSS VL: DIQMTQSPASLSVSVGETVTITCRASENIYSNLAWYQQKQGKSPQLLVYAATNLADGVPSRFSGSGSGTQYSLKINSLQSEDFGNYYCQRFWDTPRTFGGGTKLEIK and answer again. 0.61

Follow-up item: F3.5.1 (antibody, human IgG1, V domains shown, human-murine chimeric antibody, human IgG1) VH: QAQLQQSGPELVKPGASVKISCKASGYAFSGSWMNWVQQRPGKGLEWIGRIYPGDGDTYYNGKFKDKAILTADKSSSTAYMQLSSLTSEDSAVYFCAQLRYRYVMDYWGQGTSVTVSS VL: DIVLTQSPASLAVSLGQRATISCRASESVSIHGSHLMHWYQQKPGQPPRLLIYAASNLESGVPARFSGSGSETDFTLNIHPVEEEDAATYFCQQGIKDPYTFGGGTKLEIK 2.49

And the next one, F5.11.2 (antibody, human IgG1, V domains shown, human-murine chimeric antibody, human IgG1) VH: EVQLVESGGDLVKPGGSLKLSCAASGFTFSSYGMSWVRQTPDKRLEWVATISHGGSYTHYPDSVKGRFTISRDNAKNTLYLQMNSLKSEDTAMYYCVRLPITTVEAPYFFDYWGQGTTLTVSS VL: DIQMTQTTSSLSASLGDRVTISCRASQDIRNYLNWYQQKPDGTVKLLIYYTSILHSGVPSRFSGSGSGTDYSLTINNLEQEDVATYFCQQGNTLYTFGGGTEVELR ? 14.7

Also F4.180.1 (antibody, human IgG1, V domains shown, human-murine chimeric antibody, human IgG1) VH: EVQLQQSAPELVKPGASVKMSCKTSGYTFTENIIHWVKQTHGKSLEWIGGINPDNGGTSYHQKFKGRTTLTIDKSSSTAYMELRSLTSDDSAVFFCARQAPLYWYFDIWGAGTTVTVSS VL: DIVLTQSPASLAVSLGQRATISCRASESVDSYGNSLMHWFQQKPGQPPRLLIYRASNLESGIPARFSGSGSRTDFTLTITPVEADDVATYYCQQSNEDPWTFGGGTKLEIK ? 1.24
